- study_target: HA of A/Wisconsin/67/05 (H3N2) virus (influenza A virus)
- test_protocol: cell-based or functional assay
Neutralization IC50, H3-Wl05 listing for selected binders.
Provide the reading as a plain figure in µg/mL.

Sample records with Neutralization IC50, H3-Wl05:
Antibody 3 (antibody, V domains shown) VH: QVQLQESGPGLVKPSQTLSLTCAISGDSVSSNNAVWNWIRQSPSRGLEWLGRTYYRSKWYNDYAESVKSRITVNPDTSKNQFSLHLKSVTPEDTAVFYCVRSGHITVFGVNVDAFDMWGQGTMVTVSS VL: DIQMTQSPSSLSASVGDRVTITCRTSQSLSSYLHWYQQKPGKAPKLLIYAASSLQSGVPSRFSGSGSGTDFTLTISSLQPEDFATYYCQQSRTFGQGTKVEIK ... 2.44
Antibody 6 (antibody, V domains shown) VH: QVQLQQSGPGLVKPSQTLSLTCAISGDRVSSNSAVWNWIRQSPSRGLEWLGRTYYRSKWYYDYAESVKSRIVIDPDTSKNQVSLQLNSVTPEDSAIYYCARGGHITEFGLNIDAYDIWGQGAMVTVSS VL: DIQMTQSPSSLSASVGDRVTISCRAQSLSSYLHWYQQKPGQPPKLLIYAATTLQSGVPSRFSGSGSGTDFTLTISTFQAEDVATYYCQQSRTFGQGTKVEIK ... 6.76
Antibody 5 (antibody, V domains shown) VH: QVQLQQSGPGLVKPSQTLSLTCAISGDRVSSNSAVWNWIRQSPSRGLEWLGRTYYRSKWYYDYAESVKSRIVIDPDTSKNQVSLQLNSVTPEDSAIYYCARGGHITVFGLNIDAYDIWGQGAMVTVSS VL: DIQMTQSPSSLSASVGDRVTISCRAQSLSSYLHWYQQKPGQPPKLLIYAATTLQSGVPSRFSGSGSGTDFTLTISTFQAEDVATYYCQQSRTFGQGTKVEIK ... 2.83

Here's the next entry for you.
Problem: Need Neutralization IC50, H3-Wl05, item Antibody 10 (antibody, V domains shown) VH: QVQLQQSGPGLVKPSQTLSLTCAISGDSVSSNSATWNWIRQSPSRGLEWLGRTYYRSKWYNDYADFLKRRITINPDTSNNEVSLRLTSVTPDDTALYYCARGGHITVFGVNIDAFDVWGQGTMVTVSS VL: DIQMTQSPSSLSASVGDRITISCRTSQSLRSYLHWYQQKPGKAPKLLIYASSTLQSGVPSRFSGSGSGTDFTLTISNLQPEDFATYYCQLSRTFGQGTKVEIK
Solution: 4.46
